// EC50 lookup, one value per entry
# measured target: T1, human CX3CR1 (human, UniProt P49238 1-355)
# T1 construct: overexpressed on CHO, BA/F3 or HEK293T cells; also called huCX3CR1; hCX3CR1
# T1 sequence: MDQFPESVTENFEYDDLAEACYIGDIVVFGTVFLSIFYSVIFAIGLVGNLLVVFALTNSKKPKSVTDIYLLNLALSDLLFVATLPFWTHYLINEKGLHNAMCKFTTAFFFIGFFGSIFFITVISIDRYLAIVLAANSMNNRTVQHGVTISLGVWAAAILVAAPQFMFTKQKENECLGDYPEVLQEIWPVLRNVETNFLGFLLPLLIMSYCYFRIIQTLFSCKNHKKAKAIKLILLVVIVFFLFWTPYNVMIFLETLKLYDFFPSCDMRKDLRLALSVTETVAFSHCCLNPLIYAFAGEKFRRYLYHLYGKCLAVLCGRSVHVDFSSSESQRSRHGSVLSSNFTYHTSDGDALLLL
# test protocol: FACS binding on human CX3CR1 cells, anti-c-myc detection
Lab book: enter the figure in nM, no units written.

Some binders with recorded EC50:
| binder | result units | EC50 |
| --- | --- | --- |
| CX3CR1BIIPMP54A7 (VHH, also called 54A07; not shown: C-terminal c-myc and His6 tags) VHH: EVQLVESGGGSVQAGESLRLSCAASGTIFSSNAMAWYRQAPGKQRDLVAGINSVDITKYADSVKGRFTISRDNAKNTVYLQMNSLKPEDTAVYYCTSDPRRGWNTRYWGQGTQVTVSS | nM | 540 |
| CX3CR1BIIPMP18E6 (VHH, family 13; also called 18E06; CX3CR1BII18E06; not shown: C-terminal c-myc and His6 tags) VHH: KVQLVESGGGLVQPGGSLRLSCATSGTIFSNNAMGWYRQAPGKKRDLVASISSSGSTNYADSVKGRFTVSRDNDKNTGYLQMNSLKPEDTGVYYCTLDARRGWNTAYWGQGAQVTVSS | nM | 1.5 |
| CX3CR1BIIPMP11H11 (VHH, family 9; also called CX3CR1BII11H11; not shown: C-terminal c-myc and His6 tags) VHH: EVQLVESGGGLVQAGGSLRLSCVASGRTFSSYAMGWFRQAPGKERAFVAGISGSASRKYYADSVKGRFTVSRDNARNTVYLQMNSLKPEDTAVYYCAASNSYPKVQFDYYGQGTQVTVSS | nM | 0.8 |
| CX3CR1BIIPMP54A12 (VHH, also called CX3CR1BII54A12; not shown: C-terminal c-myc and His6 tags) VHH: EVQLVESGGGSVQAGESLRLSCAASGSIFSSNAMAWYRQAPGKQRDLVAVINSVGITKYADSVKGRFTISGDNAKNTVYLQMNSLKPEDTAVYYCTSDARRGWDTRYWGQGTQVTVSS | nM | 35 |

--- query ---
Lookup: Query (binder): CX3CR1BIIPMP54D5 (VHH, also called 54D05; CX3CR1BII54D5; not shown: C-terminal c-myc and His6 tags) VHH: EVQLVESGGGSVQAGESLRLSCAASGSIFSSNAMAWYRQAPPGKQRDLVALINSVGITKYADSVKGRFTISSDNAKNTVYLEMNSLKPEDTAVYYCTSDGRRGWDTRYWGQGTQVTVSS ; field requested: EC50
Found: 0.84

// data source = patent US20130224224A1
